# study.target: SARS-CoV-2 spike protein bearing furin mutation and truncation in retention sequence, on pseudovirus (SARS-CoV-2, UniProt P0DTC2 14-1255)
# protocol.details: cell-based or functional assay
Decide using pseudovirus neutralisation IC50: a value greater than or equal to 0.5 nM is TRUE, a smaller one is FALSE.

Please tell me: is the binder YANG-1302 (antibody, V domains shown) VH: QVQLVESGGGAVQPGRSLRLSCRASGFTFSSFGMNWVRQVPGKGLVWVAGIWYDGRNKYYADSVKGRFTISRENSKNMLYLQMNSLRAEDTAVYYCARDQDSGFDGNWFGPWGQGTMVTVSS VL: SYELTQPPSMSVSPGQTASITCSGDNLGDKYVCWYQQRPGQSPVMVIFQDSTRPSGIPERFSGSNSGNTATLTISGTQAMDEADYYCQAWDSNTAVFGGGTKLTVL at or over 0.5 nM in terms of pseudovirus neutralisation IC50? FALSE

In plain terms: is recorded pseudovirus neutralisation IC50 at least 0.5 nM for YANG-1401 (antibody, V domains shown) VH: QVHLQESGPGLVKPSGTLSLTCAVSGGSFSQINWWSWVRQSPGKGLEWIGEIYHSGSTNYNPSLKSRVTMSVDKSKNQFSLALNSVTAADTAVYYCARGYYGDNWFDSWGQGTLVTVSS VL: DIQMTQSPSSLSASIGDRVTITCRASQGISNWLVWYQQKPEKAPKSLIYAASSLQSGVPSRFSGSGSGTDFTLTISSLHPEDFATYYCQQYSDYPLTFGGGTKVEIK ? TRUE

Determine whether this binder has pseudovirus neutralisation IC50 no lower than 0.5 nM: YANG-2108 (antibody, V domains shown) VH: QVQLQESGPGQVKPSGTLSLTCAVSGGSIRSSNWWIWVRQPPGKGLEWIGEIYHGGNTNYSPSLKSRVSISVDKSKNHFSLNLTSVTAADTAVYYCARALYDVGGVFDIWGQGTMVTVSS VL: QSALTQPASVSGSPGQSITISCTGSSSDVGGYNYVSWYQQHPGKAPKLMIYDVSERPSGVSNRFSGSKSGNTASLTISGLQAEDEGDYYCCSYAANSNVVFGGGTKLSVL FALSE

Determine whether this binder has pseudovirus neutralisation IC50 no lower than 0.5 nM: YANG-2208 (antibody, V domains shown) VH: QIQLVQSGAEVRKPGASVRFSCKTSGYIFTNYYMVWVRQAPGQGLEWMGIIKPSGGNTIYAQKFQGRVTMTRDTSTNTVYMDLNNLRSEDTAVYFCARTGDRAFDVWGQGTMVTVSS VL: QSVLTQPPSMSAAPGQKVTISCSGNSSNIGNNFVSWYRQFPGTAPKLLIYDNNKRPSGIPDRFSGSKSGTSATLGITGLQTGDEADYYCGTWDSSLSAGVFGGGTKLTVL TRUE

Decide: pseudovirus neutralisation IC50 of YANG-2303 (antibody, V domains shown) VH: QVQLVQSGAEVKKPGASVRVSCKVSGYTLPELAIHWVRQAPGKGLEWMGGFDPEDGETIYAQKFQGRVIMTEDTSTDTAYMDLSSLRSEDTAVYYCVKTWAAPGYNYGLDTWGQGTTVTVSS VL: EIVLTQSPGILSLSPGESATLSCRASQSIASNYLAWFQQKPGQAPRLLIYGASSRAAGFPDRFSGSGSGTDFTLTIKRLEPEDSAVYYCQHYGSSPCSFGQGTNLEIK >= 0.5 nM? FALSE

Could you verify whether the entry YANG-2206 (antibody, V domains shown) VH: QIQLVQSGAEVKKPGASVKLSCKTSGYTFTSYYMVWVRQAPGQGLEWMGIIKPSGGNTIFAQKFQGRVTMTRDTSTNTVYMDLNSLRSEDTAVYYCARTGDRAFDVWGHGTMVTVSS VL: QSVLTQPPSVSAAPGQKVTISCSGSSSNIGNNYVSWYQQFPGTAPKLLIYDNNKRPSGIPDRFSGSKSGTSATLGITGLQTGDEADYYCGTWDSSLGAGVFGGGTKVTVL shows pseudovirus neutralisation IC50 of no less than 0.5 nM? TRUE

Please tell me: is the binder YANG-2302 (antibody, V domains shown) VH: QVQLVQSGAEVRKPGASVKVSCKVSGYTLPELAIHWVRQAPGKGLEWMGGFIPEDGDTIYAQKFQGRVTMTEDTSTDTAYMDLTSLRSEDAAVYYCTSGWAAPGYNYGMAVWGQGTTVTVSS VL: EVVLTQSPGTLSLSSGERATLSCRASQSVSSNYLAWYQKKPGQAPRLLIYGASSRVTGIPDRFGGSGSGTDFTLTISRLEPEDFAVYYCQQYDASPYSFGQGTKLDIK at or over 0.5 nM in terms of pseudovirus neutralisation IC50? TRUE

Identify whether the reported pseudovirus neutralisation IC50 of the following binder is 0.5 nM or greater: YANG-2207 (antibody, V domains shown) VH: QMQLVQSGAEVKKPGASVKISCKTSGYTFTNYYMVWVRQAPGQGLEWMGIIKPSGGNTIYAQKFQGRVTMTRDTSTNTVYLDLSSLRSEDTAVYYCARTGNRAFDVWGHGTMVTVSS VL: QSVLTQPPSVSAAPGQKVTISCSGSSSNIGNNFVSWYQQFPGTAPKLLIYDNNKRPSGIPDRFSGSKSGTSATLGITGLQTGDEADYYCGTWDSSLGAGVFGGGTKLTVL TRUE

Check if pseudovirus neutralisation IC50 >= 0.5 nM (inclusive). Item: YANG-2203 (antibody, V domains shown) VH: QVQLVQSGAEVKQPGASVKVSCRASGYALTSFYVHWVRQAPGQGLEWMGIIKPSGGDTIYAQNLQGRVTMTRDTSTNTFYVELSSLRSEDTALYYCAISGNTRAFEIWGQGTMVTVSL VL: QSVLTQPPSVSAAPGQKVTISCSGSSSNIGNNFVSWYQQLPGMVPKLLIYANNKRPSGIPDRFSGSRSGTSATLGITGLQTGDEADYYCGTWDSSRSAVLFGGGTKMTVL TRUE

Reported pseudovirus neutralisation IC50 reaches at least 0.5 nM for YANG-1112 (antibody, V domains shown) VH: QITLKESGPTLVKPTQTLTLTCTFSGFSLSTGGVAVGWIRQPPGKALEWLAIIYWDDDKRYSPSLKSRLTITKDTSKNQVVLTMTNMDPVDTATYYCAHWGKDSFDIWGQGTMVTVSS VL: SYELTQPPSVSVSPGQTARITCSGDALPRKYAYWYQQKSGQAPVLVIYEDNNRPSGIPERFSGSSSGTTATLTVSGAQVEDEADYYCYSTDTSGYVVFGGGTKLTVL ? TRUE
